# tested-system: T1, human CD19 on CHO-K1-human CD19 cells (human, UniProt P15391 20-556)
# T1 construct: whole, on cells; also called CHO-K1-human CD19-2C8
# T1 sequence (looked up): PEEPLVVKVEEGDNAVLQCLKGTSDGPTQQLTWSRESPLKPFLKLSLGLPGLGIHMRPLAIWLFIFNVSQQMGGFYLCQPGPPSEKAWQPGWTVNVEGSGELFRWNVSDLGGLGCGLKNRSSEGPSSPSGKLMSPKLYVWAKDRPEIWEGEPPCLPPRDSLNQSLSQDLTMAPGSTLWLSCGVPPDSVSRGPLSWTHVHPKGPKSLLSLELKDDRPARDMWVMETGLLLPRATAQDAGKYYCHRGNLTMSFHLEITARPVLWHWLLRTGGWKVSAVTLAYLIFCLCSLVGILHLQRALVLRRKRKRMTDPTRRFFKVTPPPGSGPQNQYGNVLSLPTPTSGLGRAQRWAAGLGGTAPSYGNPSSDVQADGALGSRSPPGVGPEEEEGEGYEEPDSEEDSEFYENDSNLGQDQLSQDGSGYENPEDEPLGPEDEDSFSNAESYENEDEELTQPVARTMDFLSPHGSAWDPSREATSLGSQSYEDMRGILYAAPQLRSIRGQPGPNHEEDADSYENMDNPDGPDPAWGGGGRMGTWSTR
# method-notes: FACS on CHO-K1-human CD19 cells
Quick reference: Maximum mean fluorescence intensity of the listed items.
Give your answer as a number; write no unit.

For orientation, consider the following solved cases.
F4.22.6 (antibody, human IgG1, V domains shown, human-murine chimeric antibody, human IgG1) VH: QVQLQQSGPELVKPGASVKISCKASGYAFSSFWMNWVKQRPGQGLEWIGRIYPGDGDTNYNGKFKGKATLTADKSSTTAYMHLSSLTSVDSAVYFCTRSVITAVVDWYFDVWGAGTTVTVSS VL: QIVLSQSPAILSASPGEKVTLTCRASSSVNFMHWYQQKPGSSPKPWIYATSNLASGAPARFSGSGSGTSYSLTISRVEAEDAAAYYCQQWSSYPIFTFGSGTKLEIK : 14700
F4.145.9 (antibody, human IgG1, V domains shown, human-murine chimeric antibody, human IgG1) VH: EVQLVESGGGLVKPGGSLKLSCAAAGFAFSSYDMSWVRQIPEKRLEWVAYISAGGGNTYFLDTVKGRFTISRDHAKNTLSLQMSSLKSEDTAMYFCVRHGDYYRYFYAMDYWGQGSSVTVSS VL: DIVMTQSHKFMSTSVGDRVSITCKASQDVGTAVAWSQQKPGQSPKLLIYWASTRHTGVPDRFTGSGSGTDFTLTISNVQSEDLADYFCQQFVTYPYTFGGGTKLEIK : 48500
F4.107.12 (antibody, human IgG1, V domains shown, human-murine chimeric antibody, human IgG1) VH: EVQLQQSGPELVKPGASVKMSCKASGYTFTSYVLHWVRQKPGQGLEWIGYFNPYNDGTEYNEKFKGKAILTSDKSSSTAYMELNSLTSEDSAVYYCVGGTYYYGSSYPFAYWGQGTLVTVST VL: DVVMTQISLSLPVSLGDQASISCRSSQSLIHSNGNTYLQWYLQKPGQSPKLLIYKVSNRLSGVPDRFSGSGSGTDFTLKISRVEAEDLGVYFCSQSTHVPYTFGGGTKLEIK : 59900

Value of measured Maximum mean fluorescence intensity for the entry F3.64.4 (antibody, human IgG1, V domains shown, human-murine chimeric antibody, human IgG1) VH: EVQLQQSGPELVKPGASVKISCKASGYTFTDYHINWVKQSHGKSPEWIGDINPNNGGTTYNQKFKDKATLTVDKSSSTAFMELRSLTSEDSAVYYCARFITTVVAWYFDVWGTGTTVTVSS VL: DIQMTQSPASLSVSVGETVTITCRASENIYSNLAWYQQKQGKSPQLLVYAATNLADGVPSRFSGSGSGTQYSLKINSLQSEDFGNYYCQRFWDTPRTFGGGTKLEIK : 63700

Value of measured Maximum mean fluorescence intensity for the entry F5.11.2 (antibody, human IgG1, V domains shown, human-murine chimeric antibody, human IgG1) VH: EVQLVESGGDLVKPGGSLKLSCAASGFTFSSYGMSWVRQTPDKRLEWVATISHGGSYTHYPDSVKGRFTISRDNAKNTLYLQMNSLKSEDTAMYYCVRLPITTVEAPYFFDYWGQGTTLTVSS VL: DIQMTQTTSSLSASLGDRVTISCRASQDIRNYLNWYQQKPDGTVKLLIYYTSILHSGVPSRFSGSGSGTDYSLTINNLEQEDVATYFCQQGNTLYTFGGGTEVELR : 46600

Value of measured Maximum mean fluorescence intensity for the entry F3.133.14 (antibody, human IgG1, V domains shown, human-murine chimeric antibody, human IgG1) VH: QVQLQQPGAELVMPGASVKLSCKASGYTFTNYWMHWVKQRPGQGLEWIGEIDPSDYYANYNQKFKGKATLTVDKSSSTAYMQLSSLTSEDSAVYYCARSHYYANSYNYWGQGTTLTVSS VL: EIELTQSPTTMAASPGEKITITCSASSSISSDYLHWYQQKPGFSPKLLIYRTSNLASGLPARFSGSGSGTSYSLTIGTMEAEDVATYYCQQGSSVPRMLTFGAGTKLELK : 63100

Value of measured Maximum mean fluorescence intensity for the entry F3.113.16 (antibody, human IgG1, V domains shown, human-murine chimeric antibody, human IgG1) VH: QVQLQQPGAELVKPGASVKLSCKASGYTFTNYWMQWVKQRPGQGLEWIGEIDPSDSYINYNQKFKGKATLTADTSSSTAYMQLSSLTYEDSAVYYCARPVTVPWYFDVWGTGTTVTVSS VL: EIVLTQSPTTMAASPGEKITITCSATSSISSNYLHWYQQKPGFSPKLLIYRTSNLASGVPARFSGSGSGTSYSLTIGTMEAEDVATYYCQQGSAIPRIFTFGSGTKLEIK : 34100

Value of measured Maximum mean fluorescence intensity for the entry F4.191.1 (antibody, human IgG1, V domains shown, human-murine chimeric antibody, human IgG1) VH: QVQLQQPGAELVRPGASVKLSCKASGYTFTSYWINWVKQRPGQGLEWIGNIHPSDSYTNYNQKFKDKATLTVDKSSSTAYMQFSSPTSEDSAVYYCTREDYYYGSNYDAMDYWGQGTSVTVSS VL: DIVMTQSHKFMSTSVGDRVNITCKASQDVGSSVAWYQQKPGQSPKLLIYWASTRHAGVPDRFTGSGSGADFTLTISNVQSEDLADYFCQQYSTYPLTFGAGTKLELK : 26500

Value of measured Maximum mean fluorescence intensity for the entry F5.7.1 (antibody, human IgG1, V domains shown, human-murine chimeric antibody, human IgG1) VH: QVTLKESGPGILQPSQTLSLTCSFSGFSLTTFGMGVGWIRQPSGKGLEWLTHIWWDDDKYYNPALKSRLTISKDTSKNQVFLRIANVDTADTATYYCARVITTGVPYFDYWGQGTTLTVSS VL: ENVLTQSPAIMSASPGEKVTMTCRASSSVSSSYLYWYQQKSGASPKLWISSTSNLASGVPARFSGSGSGTSYSLTINSVEAEDAATYYCQQYSGYPWTFGGGTKLEIK : 56200

Value of measured Maximum mean fluorescence intensity for the entry F4.96.6 (antibody, human IgG1, V domains shown, human-murine chimeric antibody, human IgG1) VH: EIQLQQSGPELVKPGASVKVSCKASGYAFSAYNIYWVKQSHGKSLEWIGYIDPYNSGTTYNQKFRGKATLTVDKSSNTAYMHLSSLTSEDSAVYYCTRDGDAMDYWGQGTSVTVSS VL: EILLTQSPAIIAASPGEKVTITCSASSGVIYMNWYQQKPGSSPKIWIYDVSTLASGVPARFSGSGSGTSFSFTINSMEAEDVATYYCQQRSSYPYTFGGGTKLEIK : 52000
